System: CAKI-1
Assay: NCI tumour cell line growth inhibition, 48 h
Activity calls are given as the source filed them. Cut-off read from the data, not from the text of the source: active = GI50 up to about 1.1 µM and inactive = higher.
Reported GI50 by item:

COMPOUND: c1cncc(-c2cc(-c3cc(-c4cccnc4)[nH]n3)n[nH]2)c1
GI50: > 100 µM (inactive)
--
COMPOUND: O=C(O)C1(CC(CCCN2CCCCC2)c2ccccc2)CCCC1 (stereo not given)
GI50: > 100 µM (inactive)
--
COMPOUND: BrC1=C(Br)C2(SCCS2)[C@H]2C[C@@H]1c1ccccc12
GI50: > 91.2 µM (inactive)
--
COMPOUND: O=C(NC1C2CC3CC(C2)CC1C3)c1cc(/C=C/c2ccccc2)nc(S)n1 (stereo not given)
GI50: > 100 µM (inactive)
--
COMPOUND: C#CCn1c(=O)c(C#N)c(O)c2cc3ccccc3nc21
GI50: > 100 µM (inactive)
--
COMPOUND: Cc1c(O)c(OC2OC(CO)C(O)C(O)C2O)cc2c1CC[C@@H]1C2(C)C(=O)C[C@]2(C)[C@@H]([C@@](C)(O)C(O)/C=C/C(C)(C)O)[C@H](O)C[C@@]12C (stereo not given in full)
GI50: > 100 µM (inactive)
--
COMPOUND: CC1(C)OCC(/C=C\C(O)CC2(C)OCCO2)CO1 (stereo not given)
GI50: > 100 µM (inactive)
--
COMPOUND: O=C1OCC(O)=C1C(c1ccc(Cl)cc1)c1cc2c(cc1O)OCO2 (stereo not given)
GI50: > 100 µM (inactive)
--
COMPOUND: CC(C)(C)C1(COC(=O)c2ccc(N)cc2)COC1
GI50: > 100 µM (inactive)
--
COMPOUND: Cc1nc2ccc(Cl)cc2c(Cl)c1CCCl
GI50: 54 µM (inactive)
